- Test system: SNB-19 CNS
- procedureSummary: NCI-60 one-dose screen, 48 h (100 = growth as untreated, 0 = no growth, -100 = all killed)
- conditionSummary: 10 µM unless noted
Compounds without any hit were thinned out: in the full panel of roughly 83,000, 20% have a hit.
Assign YES to entries whose growth meets or exceeds 60%; assign NO to the rest.

{"compound": "Cc1cc(C(=O)Nc2sc3c(c2C(N)=O)CCC(=O)C3)ccc1OCCN1CCCCC1", "group": "YES"}
{"compound": "N#Cc1ccc(C(=O)CSc2nc(Nc3ccc(S(N)(=O)=O)cc3)c3ccccc3n2)cc1", "group": "YES"}

Ask | Identify whether the reported growth of the following compound is 60% or greater: COc1cc2nc(-c3ccc(C)cc3)cc(OCCCNCC3CCCO3)c2cc1OC (configuration not stated)
Reply | YES

Ask | Request: CO/N=C1\CCc2c(sc(NC(=O)c3cccc(C(F)(F)F)c3)c2C(N)=O)C1
Reply | NO

Ask | Request: CCCSc1nc(Nc2ccc(/C(C)=N\NC(N)=S)cc2)c(C#N)c(-c2ccc(OC)cc2)n1
Reply | NO

Ask | Request: O=C(c1ccc(O)cc1)C1[C@H](c2ccc(Cl)cc2)[C@@H](c2ccccc2)NC12C(=O)Nc1ccc(Cl)cc12 (some centres not stated)
Reply | YES
